# ASSAY REMARKS: recombinant UMI read abundance after kanamycin selection (control-corrected) (log10(CPM+1)); higher = more efficient recombination; extreme values may be limits of the assay; sequences stand for … in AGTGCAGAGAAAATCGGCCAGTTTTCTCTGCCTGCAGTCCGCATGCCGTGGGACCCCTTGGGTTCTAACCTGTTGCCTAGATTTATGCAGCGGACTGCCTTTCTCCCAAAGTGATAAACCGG…AGGTTGGTTTCACT; site = the 11-nt donor;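 note: IS621 bridge recombinase in Escherichia coli cells against a fixed T5 target plasmid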
Quick rule: recombinant UMI read abundance (log10) of at least 0.6 means Yes, below that means No.

Illustrative cases are given below, each with its answer.
TCAGAGACATGGACCGGTTTTCCCGGTAATCCGTATTTGCG (site TCAGAGACTAG) :: Yes
ATCCAAGCATGGACCGGTTTTCCCGGTAATCCGTATTTGAT (site ATCCAAGCTGT) :: Yes
AGCTCAGCATGGACCGGTTTTCCCGGTAATCCGTATTTGGT (site AGCTCAGCTAC) :: Yes
CCCGGTCCATGGACCGGTTTTCCCGGTAATCCGTATTTGGA (site CCCGGTCCTTG) :: No
GATTGGACATGGACCGGTTTTCCCGGTAATCCGTATTTGTC (site GATTGGACTGG) :: Yes

# evaluate next
Hello, I need to know if ATTTATGCATGGACCGGTTTTCCCGGTAATCCGTATTTGGA (site AATTATGCTTC) has measured recombinant UMI read abundance (log10) not below 0.6. Thanks!
No

Each recorded value in this set is attributed to the supplement of paper PMC11208160.
